# Tested system: T1, Streptavidin (Pierce, 21125) (UniProt P22629 37-163, limits assumed)
# T1 construct: Non-related control antigen; also called SA
# T1 sequence (P22629 37-163 limits assumed): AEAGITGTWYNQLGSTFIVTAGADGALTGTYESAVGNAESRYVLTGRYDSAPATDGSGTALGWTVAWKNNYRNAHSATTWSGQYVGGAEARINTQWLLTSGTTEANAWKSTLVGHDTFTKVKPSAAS
# Procedure details: phage ELISA

>  <Binder>
phage monoclone #9 (scFv, also called scFv9) scFv: QPVLTQPPSVSGSPGQSVTISCTGTSDDIGNYKRVSWYQQPPGTAPKLMIYEVTNRPPGVPNRFSGSKSGNTASLTISGLQAEDEADYYCSSYASGDTYVFGTGTKVTVLGSRGGGGSGGGGSGGGGSLEQVQLVQSGAEVEKPGASVKISCKASTYTFTNYYIHWVRQAPGQGLEWMGMINPSGDTTSYAQKFQGRVTMTRDTSTSTVYMELSSLRSEDTAVYYCARLSWYWGGSFDDWGQGTLVTVSS

>  <binding result>
no binding

$$$$
>  <Binder>
phage monoclone #35 (scFv, also called scFv35) scFv: QSVLTQPPSVSAAPGQKVTISCSGSSSNIGNNYVSWYQQLPGTAPKLLIYDNNKRPSGIPDRFSGSKSGTSATLGITGLQTGDEADYYCGTWDSSLSAVVFGGGTKLTVLGSRGGGGSGGGGSGGGGSLEMAQVQLVESGGGLVQPGGSLRLSCAASGFTFSSYAMSWVRQTPGKGLEWVSTITDSGDITYYTASVQGRFTISRDNSKNTLYLQMNSLRAEDTAVYYCARMSSHWYFSADYWGQGTLVTVSS

>  <binding result>
no binding

$$$$
>  <Binder>
phage monoclone #7 (scFv, also called scFv7) scFv: QSVVTQPPSVSAAPGQKATISCSGSSSNIGNNDVSWYQQLPGTAPKLLIQDNDKRPSGIPDRFSGSKSGTSATLGITGLQTGDEADYYCAVWDSSLSAAVFGPGTKVTVLGSRGGGGSGGGGSGGGGSLEMAEVQLVQSGAEVKKPGESLKISCKGSGYSFTSYWIGWVRQMPGKGLEWMGIIYPDDSDTTYSPSFQGQVTMSVDKSISTAYLQWNSLQASDTAMYYCARMSLTSYLATDGWGQGTLVTVSS

>  <binding result>
no binding

$$$$
